// reported IC50 per item
- Tested on: CYP2C19 (Homo sapiens)
- Construct: 0.1 mg/mL protein human liver microsomes (BD Gentest); tissue BD Gentest; host or cells: human liver microsomes
- Sequence (P33261 whole entry): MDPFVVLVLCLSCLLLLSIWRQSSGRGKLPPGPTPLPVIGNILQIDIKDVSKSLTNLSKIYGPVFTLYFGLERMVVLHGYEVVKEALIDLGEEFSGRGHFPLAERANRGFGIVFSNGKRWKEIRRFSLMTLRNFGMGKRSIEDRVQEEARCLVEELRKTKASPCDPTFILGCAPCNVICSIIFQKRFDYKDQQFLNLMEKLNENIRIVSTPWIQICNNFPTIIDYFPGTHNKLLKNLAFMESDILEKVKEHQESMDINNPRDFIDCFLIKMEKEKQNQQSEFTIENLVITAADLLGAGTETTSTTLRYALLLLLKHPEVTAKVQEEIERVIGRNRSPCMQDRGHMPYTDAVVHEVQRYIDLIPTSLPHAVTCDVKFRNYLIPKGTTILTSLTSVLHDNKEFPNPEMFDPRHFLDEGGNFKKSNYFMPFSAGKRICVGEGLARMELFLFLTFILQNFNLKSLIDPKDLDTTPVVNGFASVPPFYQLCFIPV
- Test name: Cocktail assay for CYPs in human liver microsomes: CYP2C19 (mephenytoin 4′-hydroxylation)
- Format: biochemical
- Test context: human liver microsomes 0.1 mg/mL, 30 μM mephenytoin, 10 min at 37° C., 6 concentrations up to 10 μM; read-out: IC50 (nM) CYP2C19
Only the number, expressed in nM, is required.

Some molecules with recorded IC50:
{"columns": ["Molecule", "Tested on", "Measured result"],
 "data": [
  ["C[C@H](c1ccc(C#N)cc1)n1cncc1CN1CCN(c2nc3ccccc3o2)CC1", "CYP2C19 (Homo sapiens)", 2260],
  ["CC(c1ccccc1-c1ccc(F)cc1)n1cncc1CN1CCS(=O)(=O)CC1 (centres unmarked)", "CYP2C19 (Homo sapiens)", 9910],
  ["C[C@H](c1ccc(C#N)cc1)n1cncc1CN1CCN(c2nc3cccc(F)c3o2)CC1", "CYP2C19 (Homo sapiens)", 3570],
  ["CCS(=O)(=O)CCc1cnc(N2CCN(Cc3cncn3[C@H](C)c3ccc(F)cc3)CC2)s1", "CYP2C19 (Homo sapiens)", 4010]
]}

We next turn to a different molecule, shown below.
Challenge: Complete the entry with IC50 for C[C@H](c1ccc(F)cc1)n1cncc1CN1CCN(C(=O)c2ccccc2)C(c2ccccc2)C1 (single isomer, unassigned) [Compound 50b]
Response given: 4400

* * *

- Tested on: CYP1A2 (Homo sapiens)
- Construct: 0.1 mg/mL protein human liver microsomes (BD Gentest); tissue BD Gentest; host or cells: human liver microsomes
- Sequence (P05177 whole entry): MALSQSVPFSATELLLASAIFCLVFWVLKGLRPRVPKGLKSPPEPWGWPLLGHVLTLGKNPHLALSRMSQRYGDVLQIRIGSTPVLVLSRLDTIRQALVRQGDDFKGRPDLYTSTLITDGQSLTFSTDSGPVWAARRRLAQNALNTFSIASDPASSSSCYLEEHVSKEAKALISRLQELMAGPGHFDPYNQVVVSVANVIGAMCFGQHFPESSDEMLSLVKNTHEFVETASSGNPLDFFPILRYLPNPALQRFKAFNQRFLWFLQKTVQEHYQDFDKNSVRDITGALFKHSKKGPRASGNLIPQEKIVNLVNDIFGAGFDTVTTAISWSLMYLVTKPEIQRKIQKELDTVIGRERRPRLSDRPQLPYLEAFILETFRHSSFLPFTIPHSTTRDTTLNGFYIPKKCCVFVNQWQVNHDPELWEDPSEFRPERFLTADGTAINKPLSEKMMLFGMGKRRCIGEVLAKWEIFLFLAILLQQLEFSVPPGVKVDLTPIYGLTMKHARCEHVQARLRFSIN
- Test name: Cocktail assay for CYPs in human liver microsomes: CYP1A2 (phenacetin O-deethylation)
- Assay type: biochemical
Quantity name: pIC50
Convention used: pIC50 is expressed as -log10 of the molar concentration.

Some molecules with recorded pIC50:
{"columns": ["Molecule", "pIC50"],
 "data": [
  ["COC(=O)C1(c2ccccc2)CCN(Cc2cncn2[C@H](C)c2ccc(F)cc2)CC1 [Compound 15]", 5.62],
  ["C[C@H](c1ccc(F)cc1)n1cncc1CN1CCC(C#N)(c2ccccc2)CC1 [Compound 14]", 5.26]
]}

Challenge: # lookup: CYP1A2 (Homo sapiens) pIC50, key = N#Cc1ccc(C2(n3cncc3CN3CCC(C#N)(c4ccc(F)cc4)CC3)CC2)cc1 [Compound 12]
Response given: 5.83

* * *

- Tested on: CYP2D6 (Homo sapiens, UniProt P10635)
- Construct: 0.1 mg/mL protein human liver microsomes (BD Gentest); tissue BD Gentest; host or cells: human liver microsomes
- Sequence (P10635 whole entry): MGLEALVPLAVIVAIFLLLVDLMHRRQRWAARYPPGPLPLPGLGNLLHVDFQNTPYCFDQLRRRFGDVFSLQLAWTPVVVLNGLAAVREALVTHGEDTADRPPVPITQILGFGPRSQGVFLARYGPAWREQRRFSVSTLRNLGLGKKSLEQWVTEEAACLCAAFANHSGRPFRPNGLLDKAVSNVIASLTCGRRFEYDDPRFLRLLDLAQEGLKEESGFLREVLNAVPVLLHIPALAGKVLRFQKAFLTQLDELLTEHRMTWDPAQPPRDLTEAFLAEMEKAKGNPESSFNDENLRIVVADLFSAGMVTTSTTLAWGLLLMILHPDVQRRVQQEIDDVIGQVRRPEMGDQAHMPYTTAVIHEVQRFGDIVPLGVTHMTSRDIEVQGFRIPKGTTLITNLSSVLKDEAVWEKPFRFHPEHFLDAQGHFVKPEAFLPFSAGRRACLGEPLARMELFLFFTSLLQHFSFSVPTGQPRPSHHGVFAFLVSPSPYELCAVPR
- Test name: Cocktail assay for CYPs in human liver microsomes: CYP2D6 (dextromethorphan O-demethylation)
- Format: biochemical
- Test context: human liver microsomes 0.1 mg/mL, 5 μM dextromethorphan, 10 min at 37° C., 6 concentrations up to 10 μM; read-out: IC50 (nM) CYP2D6
Label key: Met means IC50 under 2000 nM; Not met means IC50 of 2000 nM or more.

Please review the entries below; each comes with its answer.
{"columns": ["Compound", "Category"],
 "data": [
  ["C[C@H](c1ccc(F)cc1)n1cncc1CN1CCN(C(=O)c2ccccc2)C(c2ccccc2)C1 (single isomer, unassigned) [Compound 50b]", "Not met"],
  ["COCCN1CCN(Cc2cncn2C(C)c2ccccc2-c2ccc(F)cc2)CC1 (stereo not shown)", "Met"],
  ["C[C@H](c1ccc(F)cc1)n1cncc1CN1CCC(C#N)(c2ccccn2)CC1", "Not met"],
  ["C[C@H](c1ccc(F)cc1)n1cncc1CN1CCC(C#N)(C2CCOCC2)CC1", "Not met"],
  ["C[C@H](c1ccc(F)cc1)n1cncc1CN1CCN(C(=O)c2ccccc2)C(c2ccccc2)C1 (single isomer, unassigned) [Compound 50a]", "Not met"],
  ["C[C@H](c1ccc(F)cc1)n1cncc1CN1CCN(Cc2cnc(N(C)C)s2)C(=O)C1", "Not met"],
  ["C[C@H](c1ccc(F)cc1)n1cncc1CN1CCN(c2nc3ccccc3o2)CC1", "Not met"],
  ["CC(c1ccc(S(C)(=O)=O)cc1)n1cncc1CN1CCN(c2nc3ccccc3o2)CC1 (stereo not shown)", "Not met"],
  ["Fc1ccc(CCn2cncc2CN2CCN(c3nc4ccccc4o3)CC2)cc1", "Met"],
  ["C[C@H](c1ccc(F)cc1)n1cncc1CN1CCN(C(=O)C2(C)CC2)C(c2ccc(N(C)C)cc2)C1 (stereo partly shown)", "Not met"]
]}

Challenge: Strictly below 2000 nM: is that where IC50 of N#Cc1ccc(C2(n3cncc3CN3CCN(c4nc5ccccc5o4)CC3)CC2)cc1 sits?
Response given: Not met

Challenge: Strictly below 2000 nM: is that where IC50 of CC(=O)N1CCN(Cc2cncn2[C@H](C)c2ccc(F)cc2)CC1c1ccccc1 (stereo partly shown) sits?
Response given: Not met

Challenge: Strictly below 2000 nM: is that where IC50 of Cc1cccc2nc(N3CCN(Cc4cncn4[C@H](C)c4ccc(C#N)cc4)CC3)oc12 sits?
Response given: Not met

Challenge: Strictly below 2000 nM: is that where IC50 of C[C@H](c1ccc(F)cc1)n1cncc1CN1CCN(C(=O)c2ccccc2)C(C(C)(C)C)C1 (stereo partly shown) sits?
Response given: Not met

Challenge: Strictly below 2000 nM: is that where IC50 of CC(C)OCCn1cncc1CN1CCN(c2nc3ccccc3o2)CC1 sits?
Response given: Met

Challenge: Strictly below 2000 nM: is that where IC50 of CC(C)C(C)n1cncc1CN1CCN(c2nc3ccccc3o2)CC1 (stereo not shown) sits?
Response given: Met
